measurement.target: JAK1 (Homo sapiens (Human))
Sequence (P23458 875-1153): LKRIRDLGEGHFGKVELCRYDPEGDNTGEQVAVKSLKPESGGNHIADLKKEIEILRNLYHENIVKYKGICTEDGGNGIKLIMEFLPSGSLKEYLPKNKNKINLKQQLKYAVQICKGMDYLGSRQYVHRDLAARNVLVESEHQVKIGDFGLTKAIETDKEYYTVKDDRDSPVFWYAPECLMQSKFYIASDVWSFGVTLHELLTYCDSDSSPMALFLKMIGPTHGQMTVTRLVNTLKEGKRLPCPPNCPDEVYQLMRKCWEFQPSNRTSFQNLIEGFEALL
assay.text: Jak Biochemical HTRF Assay (JAK1)
recorded.conditions: recombinant purified GST-tagged catalytic domain; HTRF; [ATP] 31.8 μM; [E] 1.405 nM
Experimental: Jak Biochemical HTRF Assay Protocol The ability of compounds to inhibit the activity of JAK1, JAK2, JAK3, and Tyk2 was measured using a recombinant purified GST-tagged catalytic domain for each enzyme (Invitrogen JAK1 #M4290, JAK2 #M4290, JAK3 #M4290, Tyk2 #M4290) in an HTRF format biochemical assay. […] Plates were shaken and centrifuged and then incubated 60 minutes at room temperature and then read on a Perkin Elmer Envision (Xex=337 nm, λem=665 and 615 nm, TRF delay time=20 μs). […]
outcome.measure: pIC50
Give bare numbers, as −log10 of the molar value.

Would you please look over these solved cases?
1. CCC1(n2nc(Nc3ccc(C(=O)N4CCOC(=O)C4)c(C)c3)c3c(=O)[nH]ccc32)CCN(C(=O)OC(C)(C)C)CC1 [Example 3-1] :: 9.60
2. CCC1(n2nc(Nc3ccc(C(O)C(F)(F)F)cc3)c3c(=O)[nH]ccc32)CCN(C(=O)OC(C)(C)C)CC1 (stereo not shown) [Example 2-43] :: 9.05
3. CCC1(n2nc(Nc3ccc(C(C)(O)C(F)(F)F)cc3)c3c(=O)[nH]ccc32)CCN(C(=O)OC(C)(C)C)CC1 (stereo not shown) [Example 2-42] :: 8.78
4. CCC1(n2nc(Nc3ccc(C(=O)N4C[C@H]5C[C@@H]4CO5)c(C)c3)c3c(=O)[nH]ccc32)CCN(C(=O)OC(C)(C)C)CC1 [Example 2-15] :: 9.40
5. CCC1(n2nc(Nc3cccc(CC#N)c3)c3c(=O)[nH]ccc32)CCN(C(=O)OC(C)(C)C)CC1 [Example 2-17] :: 9.28
6. CCc1cc(Nc2nn(C3(CC)CCN(C(=O)OC(C)(C)C)CC3)c3cc[nH]c(=O)c23)ccc1C(=O)N1CCOCC1 [Example 2-24] :: 9.33
7. CCC1(n2nc(Nc3ccnc(F)c3)c3c(=O)[nH]ccc32)CCN(C(=O)OC(C)(C)C)CC1 [Example 2-40] :: 9.42
8. CCC1(n2nc(Nc3ccc(C(=O)N4CCC(N5CCSCC5)CC4)c(C)c3)c3c(=O)[nH]ccc32)CCN(C(=O)OC(C)(C)C)CC1 [Example 3-12] :: 9.25

For every record below, what is its pIC50?
1. CCC1(n2nc(Nc3ccc(C(=O)N4CCOC(C)(C)C4)c(C)c3)c3c(=O)[nH]ccc32)CCN(C(=O)OC(C)(C)C)CC1 [Example 3-2]
2. CCC1(n2nc(Nc3ccc(C(=O)N4CC[S+]([O-])CC4)c(C)c3)c3c(=O)[nH]ccc32)CCN(C(=O)OC(C)(C)C)CC1 [Example 3-11]

1. 9.21
2. 9.72

Report pIC50 for each item below.
1. CCC1(n2nc(Nc3ccc(C(=O)N4C[C@H](C)O[C@@H](C)C4)c(C)c3)c3c(=O)[nH]ccc32)CCN(C(=O)OC(C)(C)C)CC1 [Example 3-7]
2. CCC1(n2nc(Nc3ccc(C(=O)N4CCO[C@@H](C)C4)c(C)c3)c3c(=O)[nH]ccc32)CCN(C(=O)OC(C)(C)C)CC1 [Example 2-8]
3. CCC1(n2nc(Nc3ccc(C(=O)N4CCCOCC4)c(C)c3)c3c(=O)[nH]ccc32)CCN(C(=O)OC(C)(C)C)CC1 [Example 3-10]
4. CCC1(n2nc(Nc3ccc4c(c3)CN(C3CCN(C)CC3)S4(=O)=O)c3c(=O)[nH]ccc32)CCN(C(=O)OC(C)(C)C)CC1 [Example 2-30]

1: 9.28; 2: 9.21; 3: 9.54; 4: 9.54

Provide the reported pIC50 of each entry below, same order.
1. CCC1(n2nc(Nc3ccc(C(=O)N4CCOC[C@@H]4C)c(C)c3)c3c(=O)[nH]ccc32)CCN(C(=O)OC(C)(C)C)CC1 [Example 2-6]
2. CCC1(n2nc(Nc3ccc(C(=O)N4CCCC4)c(C)c3)c3c(=O)[nH]ccc32)CCN(C(=O)OC(C)(C)C)CC1 [Example 2-33]

1. 9.29
2. 9.14

Look at each molecule and report its pIC50.
1. CCc1cc(Nc2nn(C3(CC)CCN(C(=O)OC(C)(C)C)CC3)c3cc[nH]c(=O)c23)ccc1C(=O)N1CCSCC1 [Example 2-29]
2. CCC1(n2nc(Nc3ccc(C(=O)N4CCOC5(CCCC5)C4)c(C)c3)c3c(=O)[nH]ccc32)CCN(C(=O)OC(C)(C)C)CC1 [Example 3-3]
3. CCC1(n2nc(Nc3ccc(C(=O)N4CCOC[C@H]4C)c(C)c3)c3c(=O)[nH]ccc32)CCN(C(=O)OC(C)(C)C)CC1 [Example 2-28]
4. CCC1(n2nc(Nc3ccc(C(=O)N4CCOCC(C)C4)c(C)c3)c3c(=O)[nH]ccc32)CCN(C(=O)OC(C)(C)C)CC1 (single isomer, unassigned) [Example 3-19]

[8.75, 9.00, 9.27, 8.91]
